The measurements presented in this section are drawn from the supplement of paper PMC10567573.

Below, each entry is listed with its recorded protein stability index.
B1: TRIM15 (parent)
chain: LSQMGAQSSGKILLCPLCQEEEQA

Variants of: B1
Experiment: protein stability index of a GFP-peptide fusion (GPS, HEK-293T) (PSI 1-6); higher = more stable;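 also: lentivirally expressed fusions sorted by FACS into six bins by GFP to DsRed ratio, PSI derived from sequencing read proportions per bin multiplied by bin number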
Settings: c terminus: a fixed tail appended
QUANTITY: protein stability index

{"VARIANT LABEL": "L14C", "QUANTITY": "protein stability index", "QUANTITATIVE READOUT": 3.94}
{"VARIANT LABEL": "Q19P", "QUANTITY": "protein stability index", "QUANTITATIVE READOUT": 4.42}
{"VARIANT LABEL": "S2F", "QUANTITY": "protein stability index", "QUANTITATIVE READOUT": 2.96}
{"VARIANT LABEL": "C15Q", "QUANTITY": "protein stability index", "QUANTITATIVE READOUT": 4.96}
{"VARIANT LABEL": "P16V", "QUANTITY": "protein stability index", "QUANTITATIVE READOUT": 3.29}
{"VARIANT LABEL": "L14S", "QUANTITY": "protein stability index", "QUANTITATIVE READOUT": 4.72}
{"VARIANT LABEL": "E21V", "QUANTITY": "protein stability index", "QUANTITATIVE READOUT": 3.08}
{"VARIANT LABEL": "L17Y", "QUANTITY": "protein stability index", "QUANTITATIVE READOUT": 3.34}
{"VARIANT LABEL": "S9Q", "QUANTITY": "protein stability index", "QUANTITATIVE READOUT": 2.65}
{"VARIANT LABEL": "L17Q", "QUANTITY": "protein stability index", "QUANTITATIVE READOUT": 4.19}
{"VARIANT LABEL": "Q3C", "QUANTITY": "protein stability index", "QUANTITATIVE READOUT": 3.18}
{"VARIANT LABEL": "P16L", "QUANTITY": "protein stability index", "QUANTITATIVE READOUT": 3.37}
{"VARIANT LABEL": "C18L", "QUANTITY": "protein stability index", "QUANTITATIVE READOUT": 4.82}
{"VARIANT LABEL": "S9H", "QUANTITY": "protein stability index", "QUANTITATIVE READOUT": 3.71}
{"VARIANT LABEL": "G5H", "QUANTITY": "protein stability index", "QUANTITATIVE READOUT": 3.14}
{"VARIANT LABEL": "Q19S", "QUANTITY": "protein stability index", "QUANTITATIVE READOUT": 3.23}
